Entry source: paper PMC12136788

Tested Target: T1, UNK ZnF1-6 (called full-length) (human, UniProt Q9C0B0 30-357)
T1 sequence: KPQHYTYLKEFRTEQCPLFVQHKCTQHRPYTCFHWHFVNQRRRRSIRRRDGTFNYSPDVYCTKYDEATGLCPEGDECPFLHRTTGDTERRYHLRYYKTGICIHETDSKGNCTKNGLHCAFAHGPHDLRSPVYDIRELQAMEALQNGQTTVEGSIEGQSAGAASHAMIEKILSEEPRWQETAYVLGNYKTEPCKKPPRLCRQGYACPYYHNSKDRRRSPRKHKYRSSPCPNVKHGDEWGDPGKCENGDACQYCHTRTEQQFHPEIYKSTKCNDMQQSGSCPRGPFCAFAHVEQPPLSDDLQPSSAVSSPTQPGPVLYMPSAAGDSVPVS
Experimental Protocol: nsRBNS (natural sequence RNA bind-n-seq); RBNS binding buffer (assumed for nsRBNS): 25 mM Tris pH 7.5, 150 mM KCl, 3 mM MgCl2, 0.01% Triton X-100, 500 ug/ml BSA, 20 U/ml SUPERase-In, 4 C; UNK is unkempt and MSI1 is Musashi-1; names of the RNAs are library labels; protein concentration not given here; high values mean tight binding
Whole data set: some 5,800 sequences, median “enrichment r” near 0.68, cut for the highest 2% near 11. Shown is part of a subset that was picked to be rich in the highest values.
# label = yes (1) if binding signal < 0.8 enrichment R else no (0)

Some entries whose results are on file:
Binder: chr12:122341087:122341188:-|CDS|ENSG00000130779|unk|FALSE|bound_elsewhere (ssRNA) RNA: GGGAGUUCUACAGUCCGACGAUCAGAAUUUGCUGAACUAAAAACACAAAUAGAGAAAAUGAGACUAGAUUACCAACACGAAAUAGAAAAUUUGCAGAAUCAACAAGACUCUGAACGGGCUGCCCAUGCUAAAGAGAUGGAAGCCAACAGAGGAUUGAGCAUCA
Label Value: no (0)
--
Binder: chr16:785952:786377:-|CDS|ENSG00000007376|control|control|control (ssRNA) RNA: GGGAGUUCUACAGUCCGACGAUCCAGUCGCUGGACCAGCUCGUGCAGGCCUUACGGGCCACCCCCGACCCUGACCCCGAGGAUAGGGGCCCCAGGCCAGGCAGCCCCUCCGCACUCCUGCCUGGGCCCGGCCGGCCUCCUCCACAACAGAGGAUUGAGCAUCA
Label Value: yes (1)
--
Binder: chr1:211748167:211748268:-|3pUTR|ENSG00000123684|msi1|FALSE|unique (ssRNA) RNA: GGGAGUUCUACAGUCCGACGAUCGUACUGCAUCAGUGAGAUGAGUAGGGUUUUUGUUUGGGAUUGUAAGACUAUUAAGAUCCUAGUAAGUCAGUGGUAGUUUACUGUGAUGUGAGCAUUGUAGAUUCCCCCGUUGUCACUAAUCAACAGAGGAUUGAGCAUCA
Label Value: yes (1)
--
Binder: ENSG00000070961:be:win_5251|3pUTR|ENSG00000070961|bound_else_gene|NA|bound_elsewhere_windowed (ssRNA) RNA: GGGAGUUCUACAGUCCGACGAUCUGGAUUCUUUAGCUCUCUUUUUCUUUCCUUCAUCUACCUUCUUCUCUUUUUUGCCUCUGUCUUUACCCUUUAGAAACUGGCAUGUGUUAGGGCCCAGAUUUCACCAGAUACACAAUCCUCCAACAGAGGAUUGAGCAUCA
Label Value: no (0)
--
Binder: ENSG00000198589:be:win_5851|CDS|ENSG00000198589|bound_else_gene|NA|bound_elsewhere_windowed (ssRNA) RNA: GGGAGUUCUACAGUCCGACGAUCACUCAACUAAUCCAGAAAAUUAUCAACAUUCUCACAGACAAGCAUGGAGCCUGGGGAAAUUCUGCAGUGAGUCGUCCUCUUGAGUUCUGGCGCCUUGACUACUGGGAAGAUGACUUGCGGCAACAGAGGAUUGAGCAUCA
Label Value: no (0)

Strictly below 0.8 enrichment R: is that where binding signal of ENSG00000107863:be:win_5851|CDS_3pUTR|ENSG00000107863|bound_else_gene|NA|bound_elsewhere_windowed (ssRNA) RNA: GGGAGUUCUACAGUCCGACGAUCAAAGCAGAGUUUCAUCCCUGUCUUUAAACUGGGGGUAUGUCCACUCUAGCAAGUAAAAAAACUACUGUUACACGUUCCAGUAACUCUGUCAAUAUUUUCUUGUAUCAGAAUUGUUAUUAUCAACAGAGGAUUGAGCAUCA sits?
yes (1)

Criterion: binding signal strictly below 0.8 enrichment R. Is it met by chr1:93180074:93180188:-|CDS|ENSG00000117500|unk|total|mutant (ssRNA) RNA: GGGAGUUCUACAGUCCGACGAUCCUGGCCGCUCUGCCUCCGGUGCUGCUGCCUGGGGCGGCCGGCUUCACACCUUCCCUCGACCGCGACUUCACCUUUACCCUUCCCGCCGGCCAGAAGGAGUGCUUCUACCAGCCCAUGCCCCAACAGAGGAUUGAGCAUCA ?
no (0)
